# EXPERIMENT: in vitro
# Parameters: species or system CCD841, HEK293
# EXPERIMENTAL CONTEXT: human, hb2 cells, read-out: HB-2 Cells Viability (%)
MEASURED PROPERTY: viability at 48 h, 10 µM (%)
Write it as a number; the unit % goes unstated.

See these solved cases before continuing.
CC(=O)Nc1ccc(NC(=O)CCl)cc1 [PCM-0102114]: 69.9
CN(C)C(=O)c1ccc(NC(=O)CCl)cc1 [PCM-0102877]: 67.6
C=CC(=O)NCC1CCCc2sc(C)nc21 (stereo not drawn) [PCM-0102952]: 97.6
CC(c1ccc(Cl)cc1)N(C)C(=O)CCl (stereo not drawn) [PCM-0102556]: 4.9
O=C(CCl)NC1CS(=O)(=O)CC1Cl (stereo not drawn) [PCM-0102291]: 99.6

Request: For the molecule Cc1ccc(CN(C)C(=O)CCl)cc1 [PCM-0103017] , report viability at 48 h, 10 µM.
Result: 67.7

Request: State, in one line, measured viability at 48 h, 10 µM of CN(CCC#N)C(=O)CCl [PCM-0102712]
Result: 89.4

Request: Consider the molecule C=CC(=O)N1CCC(NC(=O)c2ccncc2)CC1 [PCM-0102595] and give its recorded viability at 48 h, 10 µM.
Result: 102

Request: State its viability at 48 h, 10 µM for this molecule: C=CC(=O)N1CCCC(c2ncc3n2CCCC3)C1 (stereo not drawn) [PCM-0103042]
Result: 95.6

Request: Return the recorded viability at 48 h, 10 µM value; entry: Cc1ccccc1C(C)NC(=O)CCl (stereo not drawn) [PCM-0102390]
Result: 92.8

Request: Report viability at 48 h, 10 µM for NC(=O)C1CCCN(C(=O)CCl)C1 (stereo not drawn) [PCM-0102495]
Result: 92.7
